Origin of values: patent US9603836B2

- test system: hIDO1 (Homo sapiens (Human), UniProt P14902)
- Sequence (P14902 whole entry): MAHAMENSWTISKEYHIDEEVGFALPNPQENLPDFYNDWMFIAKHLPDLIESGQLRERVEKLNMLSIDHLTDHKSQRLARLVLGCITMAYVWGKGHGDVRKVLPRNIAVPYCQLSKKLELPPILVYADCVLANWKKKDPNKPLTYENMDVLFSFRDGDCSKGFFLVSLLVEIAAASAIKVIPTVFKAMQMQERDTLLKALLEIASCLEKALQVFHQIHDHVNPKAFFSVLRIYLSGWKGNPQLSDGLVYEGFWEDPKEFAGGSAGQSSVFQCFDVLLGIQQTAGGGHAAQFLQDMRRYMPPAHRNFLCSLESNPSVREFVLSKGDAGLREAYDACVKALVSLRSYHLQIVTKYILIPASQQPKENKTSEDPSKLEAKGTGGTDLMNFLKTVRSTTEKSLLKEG
- test description: Assay for IDO1 enzymatic activity determination
- Type: biochemical
- experimental setup: human recombinant IDO1 enzyme, L-Trp 100 μM
Please note: IC50 exactly at 2 µM is rule not met. Only values below 2 µM get rule met.

Prompt: Bench note: check whether O=C1C[C@H](c2c[nH]c3ccccc23)C(=O)N1 [Compound 4] shows IC50 below 2 µM
Completion: rule met

Prompt: Bench note: check whether O=C1CC(c2cccc3ccc(F)cc23)C(=O)N1 (centres unmarked) [Compound 25] shows IC50 below 2 µM
Completion: rule not met

###

- test system: hIDO1 (Homo sapiens (Human), UniProt P14902)
- test description: Cellular assay for IDO1 activity determination: HeLa cells
- Type: cell-based
- experimental setup: HeLa cells stimulated with IFNγ
# IC50 listing for each entry below
Use µM as the unit, but write only the number.

Prompt: # input molecule: "O=C1C[C@H](c2c[nH]c3ccc(Cl)cc23)C(=O)N1" ; wanted: its IC50
Completion: 3.4

Prompt: # input molecule: O=C1CC(c2c[nH]c3cc(Br)c(F)cc23)C(=O)N1 (stereo not shown) ; wanted: its IC50
Completion: 7

Prompt: # input molecule: "O=C1C[C@H](c2c[nH]c3cc(Cl)c(F)cc23)C(=O)N1" ; wanted: its IC50
Completion: 3.6

Prompt: # input molecule: O=C1CC(c2c[nH]c3ccc(Br)cc23)C(=O)N1 (stereo not shown) ; wanted: its IC50
Completion: 5.9
